test: AUC (0 to 4 hrs) in C57BL/6 mouse blood at 1.9 mg/kg, po by UPLC/MS/MS analysis; assay type: ADME, organism-based; set-up: dose 1.9 mg/kg, time < 4 hr, route oral
QUANTITY_KIND: AUC(0-t) at 4 h

# input Read off the recorded AUC(0-t) at 4 h for `NS(=O)(=O)c1c(Cl)ccc(NC(=O)Nc2cccc(Cl)c2Cl)c1O`
# output 352 ng·h/mL

* * *

What follows is a record of pIC50 for Cytochrome P450 3A4 (Homo sapiens, UniProt P08684).
pIC50: −log10 of the molar value.

# input Please look at `CN1CCC(S(=O)(=O)c2c(Cl)ccc(NC(=O)Nc3cccc(Cl)c3Cl)c2O)CC1` and tell me its recorded pIC50 on Cytochrome P450 3A4 (Homo sapiens, UniProt P08684).
# Sequence (P08684 whole entry): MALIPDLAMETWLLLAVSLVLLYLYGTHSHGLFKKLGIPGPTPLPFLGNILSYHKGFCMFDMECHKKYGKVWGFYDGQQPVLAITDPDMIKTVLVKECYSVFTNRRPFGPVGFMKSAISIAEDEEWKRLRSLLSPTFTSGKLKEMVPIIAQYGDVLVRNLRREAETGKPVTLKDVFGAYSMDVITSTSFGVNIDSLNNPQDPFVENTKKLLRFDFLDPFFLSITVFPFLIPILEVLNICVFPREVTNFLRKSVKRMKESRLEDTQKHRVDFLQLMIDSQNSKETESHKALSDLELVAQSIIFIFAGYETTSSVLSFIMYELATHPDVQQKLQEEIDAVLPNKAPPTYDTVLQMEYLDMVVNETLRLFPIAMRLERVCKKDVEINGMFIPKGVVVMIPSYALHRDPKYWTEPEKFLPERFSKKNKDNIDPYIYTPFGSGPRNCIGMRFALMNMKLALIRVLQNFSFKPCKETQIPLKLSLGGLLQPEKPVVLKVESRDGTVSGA
# output < 5.00

# input Please look at `CCN1CCC(S(=O)(=O)c2c(Cl)ccc(NC(=O)Nc3cccc(F)c3Cl)c2O)CC1` and tell me its recorded pIC50 on Cytochrome P450 3A4 (Homo sapiens, UniProt P08684).
# output < 5.00

* * *

assay: Ratio of drug level in C57BL/6 mouse brain to blood at 2 mg/kg, ip; format: ADME, organism-based; settings: C57BL/6, mouse, brain/blood
So basically: is Kp under 0.3? Then fulfilled. Not under? Then not fulfilled.

Look over these answered cases.
[[record]]
compound = "CN1CC[C@H](S(=O)(=O)c2c(Cl)ccc(NC(=O)Nc3cccc(F)c3Cl)c2O)C1"
category = "not fulfilled"

[[record]]
compound = "CN1CCN(S(=O)(=O)c2c(Cl)ccc(NC(=O)Nc3cccc(Cl)c3Cl)c2O)CC1"
category = "not fulfilled"

[[record]]
compound = "O=C(Nc1ccc(Cl)c(S(=O)(=O)C2CCOC2)c1O)Nc1cccc(Cl)c1Cl (configuration not stated)"
category = "fulfilled"


# input Please check: Kp for `CN1CCC2(CCC(S(=O)(=O)c3c(Cl)ccc(NC(=O)Nc4cccc(F)c4Cl)c3O)CC2)CC1` , strictly under 0.3 or not?
# output fulfilled

# input Please check: Kp for `C[C@@H]1CN(S(=O)(=O)c2c(Cl)ccc(NC(=O)Nc3cccc(F)c3Cl)c2O)C[C@H](C)O1` , strictly under 0.3 or not?
# output not fulfilled

# input Please check: Kp for `CC(C)S(=O)(=O)c1c(Cl)ccc(NC(=O)Nc2cccc(Cl)c2Cl)c1O` , strictly under 0.3 or not?
# output not fulfilled

# input Please check: Kp for `CN1CCC[C@H](S(=O)(=O)c2c(Cl)ccc(NC(=O)Nc3cccc(F)c3Cl)c2O)CC1` , strictly under 0.3 or not?
# output fulfilled

* * *

assay: Oral bioavailability in C57BL/6 mouse at 2 mg/kg; format: ADME, organism-based; details: in vivo
QUANTITY_KIND: bioavailability (%)
State just the number; it will be interpreted in %.

Consider the following illustrative entries.
[[record]]
mol = "CN1CC[C@H](S(=O)(=O)c2c(Cl)ccc(NC(=O)Nc3cccc(Cl)c3Cl)c2O)C1"
quantity_kind = "bioavailability"
unit_label = "%"
endpoint_value = 26

[[record]]
mol = "CN1CCC(S(=O)(=O)c2c(Cl)ccc(NC(=O)Nc3cccc(Cl)c3Cl)c2O)CC1"
quantity_kind = "bioavailability"
unit_label = "%"
endpoint_value = 30


# input Read off the recorded bioavailability for `CN1CCC(S(=O)(=O)c2c(Cl)ccc(NC(=O)Nc3cccc(F)c3Cl)c2O)CC1`
# output 41

# input Read off the recorded bioavailability for `CCN1CCC(S(=O)(=O)c2c(Cl)ccc(NC(=O)Nc3cccc(F)c3Cl)c2O)CC1`
# output 41
